System: SK-N-MC neuroepithelioma line
ASSAY COMMENT: MTT cell viability assay, SK-N-MC
Format: cell-based
SETTINGS: Homo sapiens, 24 h
What IC50 was measured for each of the following?
Give bare numbers, in nM.

The following compounds have reported results that may help.
COMPOUND | DISPLAY UNIT | IC50
C=C1C(=O)O[C@H]2CC3=C[C@@H](C/C(C)=C/[C@@H](OC(=O)c4ccc(OC)cc4)[C@H]12)OC3=O | nM | 510
C=C1C(=O)O[C@H]2CC3=C[C@@H](C/C(C)=C/[C@@H](OC(=O)Cc4cccc5ccccc45)[C@H]12)OC3=O | nM | 260
C=C1C(=O)OC2CC3=C[C@@H](C/C(C)=C/C(OC(=O)/C=C/c4cccc(OC)c4)[C@H]12)OC3=O (some centres unmarked) | nM | 110
C=C1C(=O)O[C@H]2CC3=C[C@@H](C/C(C)=C/[C@@H](OC(=O)/C=C/c4ccccc4)[C@H]12)OC3=O | nM | 320

// switching to the query compound
Entry C=C(C)C(=O)O[C@H]1CC2=C[C@@H](C/C(C)=C/[C@H]3OC(=O)C(=C)[C@H]13)OC2=O [DET, deoxyelephantopin, reference compound] , system SK-N-MC neuroepithelioma line: what IC50 was measured? 510

* * *

What pIC50 was measured for each of the following?
System: MCF-7 (ER+, Her2−) human breast cancer cells
ASSAY COMMENT: MTT cell viability assay, MCF-7 cells
Format: cell-based
SETTINGS: MCF7, 24 h, read-out: IC50 on cell viability, MCF-7 (ER+, Her2−)
Numbers only, as −log10 of the molar value.

MOLECULE | pIC50
C=C(C)C(=O)OC1/C=C(\C)C[C@@H]2C=C(CC3OC(=O)C(=C)[C@@H]13)C(=O)O2 (some centres unmarked) | 5.47

For the 4 molecules below, give their pIC50 values.
1. C=C(CC)C(=O)OC1/C=C(\C)C[C@@H]2C=C(CC3OC(=O)C(=C)[C@@H]13)C(=O)O2 (some centres unmarked)
2. C=C1C(=O)OC2CC3=C[C@@H](C/C(C)=C/C(OC(=O)[C@@H](C)c4ccc5cc(OC)ccc5c4)[C@H]12)OC3=O (some centres unmarked)
3. C=C1C(=O)OC2CC3=C[C@@H](C/C(C)=C/C(OC(=O)C(C)CCCC)[C@H]12)OC3=O (some centres unmarked)
4. C=C1C(=O)O[C@H]2CC3=C[C@@H](C/C(C)=C/[C@@H](OC(=O)/C=C/c4ccccc4)[C@H]12)OC3=O

[5.46, 5.39, 5.60, 5.80]

For the 6 molecules below, give their pIC50 values.
1. C=C1C(=O)OC2CC3=C[C@@H](C/C(C)=C/C(OC(=O)/C(C)=C/CC)[C@H]12)OC3=O (some centres unmarked)
2. C=C1C(=O)OC2CC3=C[C@@H](C/C(C)=C/[C@@H](OC(=O)Cc4csc5ccccc45)[C@H]12)OC3=O (some centres unmarked)
3. C=C(C)C(=O)O[C@H]1CC2=C[C@@H](C/C(C)=C/[C@H]3OC(=O)C(=C)[C@H]13)OC2=O [DET, deoxyelephantopin, reference compound]
4. C=C1C(=O)OC2CC3=C[C@@H](C/C(C)=C/C(OC(=O)/C=C/C)[C@H]12)OC3=O (some centres unmarked)
5. C=C1C(=O)OC2CC3=C[C@@H](C/C(C)=C/C(OC(=O)C4CCCCC4)[C@H]12)OC3=O (some centres unmarked)
6. C=C1C(=O)OC2CC3=C[C@@H](C/C(C)=C/C(OC(=O)C=C(C)C)[C@H]12)OC3=O (some centres unmarked)

1: 5.62; 2: 5.42; 3: 5.30; 4: 5.41; 5: 5.34; 6: 5.47

For the 8 molecules below, give their pIC50 values.
1. C=C1C(=O)O[C@H]2CC3=C[C@@H](C/C(C)=C/[C@@H](OC(=O)c4ccc(OC)cc4)[C@H]12)OC3=O
2. C=C1C(=O)OC2CC3=C[C@@H](C/C(C)=C/C(OC(=O)/C=C/c4cccs4)[C@H]12)OC3=O (some centres unmarked)
3. C=C1C(=O)OC2CC3=C[C@@H](C/C(C)=C/C(OC(=O)/C=C/c4cc(OC)c(OC)c(OC)c4)[C@H]12)OC3=O (some centres unmarked)
4. C=C1C(=O)OC2CC3=C[C@@H](C/C(C)=C/C(OC(=O)Cc4cccc5cc(OC)ccc45)[C@H]12)OC3=O (some centres unmarked)
5. C=C1C(=O)OC2CC3=C[C@@H](C/C(C)=C/C(OC(=O)/C=C/CC)[C@H]12)OC3=O (some centres unmarked)
6. C=C1C(=O)OC2CC3=C[C@@H](C/C(C)=C/[C@@H](OC(=O)[C@@H](OC)c4ccc5ccccc5c4)[C@H]12)OC3=O (some centres unmarked)
7. C=C1C(=O)OC2CC3=C[C@@H](C/C(C)=C/C(OC(=O)CC(O)(C(C)C)C(C)C)[C@H]12)OC3=O (some centres unmarked)
8. C=C1C(=O)OC2CC3=C[C@@H](C/C(C)=C/C(OC(=O)c4ccc(C)cc4)[C@H]12)OC3=O (some centres unmarked)

5.37
5.35
5.64
5.51
5.24
5.35
5.60
5.57

Tell me the measured pIC50 of C=C1C(=O)OC2CC3=C[C@@H](C/C(C)=C/C(OC(=O)/C=C/c4ccc(OC)cc4)[C@H]12)OC3=O (some centres unmarked) , please. 5.43

* * *

Tested on: A2058 (BRAF mutation)
ASSAY COMMENT: MTT cell viability assay, A2058 melanoma
Type: cell-based, human
SETTINGS: Homo sapiens, A2058, 24 h
What pIC50 was measured for each of the following?
Give bare numbers, as −log10 of the molar value.

COMPOUND | pIC50
C=C1C(=O)O[C@H]2CC3=C[C@@H](C/C(C)=C/[C@@H](OC(=O)/C=C/c4ccccc4)[C@H]12)OC3=O [DETD-6] | 5.41

Tell me the measured pIC50 of C=C1C(=O)OC2CC3=C[C@@H](C/C(C)=C/[C@@H](OC(=O)/C=C/c4ccc5c(c4)OCO5)[C@H]12)OC3=O (stereo partly shown) [DETD-61] , please. 5.28

* * *

What IC50 was measured for each of the following?
Tested on: A2058 (BRAF mutation)
ASSAY COMMENT: MTT cell viability assay, A2058 melanoma
Assay type: cell-based, human
SETTINGS: Homo sapiens, A2058, 24 h
Experimental: Normal or cancer cells (2×10^3 to 1×10^4 cells/well) were seeded in 96-well plate for overnight and treated with different compounds for 24 h to 72 h. Cells growth were determined by MTT-based colorimetric assays according to. Viability of the test cells treated with vehicle (0.5% DMSO) only was defined as 100% viable. Survival of cells after treatment with DETDs was calculated using the following formula: viable cell number (%)=OD570 (treated cell culture)/OD570 (vehicle control)×100. […]
One number for each entry, in µM.

COMPOUND | DISPLAY UNIT | IC50
C=C1C(=O)OC2CC3=C[C@@H](C/C(C)=C/C(OC(=O)Cc4ccc(OC)cc4)[C@H]12)OC3=O (stereo partly shown) [DETD-44] | µM | 8.5
C=C1C(=O)OC2CC3=C[C@@H](C/C(C)=C/C(OC(=O)/C=C/c4cccc(OC)c4)[C@H]12)OC3=O (stereo partly shown) [DETD-39] | µM | 2.4

// switching to the query compound
Entry C=C1C(=O)OC2CC3=C[C@@H](C/C(C)=C/C(OC(=O)[C@H](C)c4ccc5cc(OC)ccc5c4)[C@H]12)OC3=O (stereo partly shown) [DETD-54] , system A2058 (BRAF mutation): what IC50 was measured? 6.6

* * *

Test system: M10 normal mammary epithelial cells
ASSAY COMMENT: MTT cell viability assay, M10 normal cells
Assay type: cell-based, human
SETTINGS: Homo sapiens, Epithelial cell, 24 h
pIC50: −log10 of the molar value.
What pIC50 was measured for each of the following?

The following compounds have reported results that may help.
COMPOUND | VALUE
C=C1C(=O)OC2CC3=C[C@@H](C/C(C)=C/C(OC(=O)CCc4cccc5ccccc45)[C@H]12)OC3=O (stereo partly shown) | < 5.12
C=C1C(=O)OC2CC3=C[C@@H](C/C(C)=C/[C@@H](OC(=O)/C=C/c4ccc(OCC)cc4)[C@H]12)OC3=O (stereo partly shown) | 5.40
C=C1C(=O)OC2CC3=C[C@@H](C/C(C)=C/C(OC(=O)C4CCCC4)[C@H]12)OC3=O (stereo partly shown) | < 5.12
C=C1C(=O)OC2CC3=C[C@@H](C/C(C)=C/C(OC(=O)c4ccccc4)[C@H]12)OC3=O (stereo partly shown) | < 5.12
C=C(C)C(=O)O[C@H]1CC2=C[C@@H](C/C(C)=C/[C@H]3OC(=O)C(=C)[C@H]13)OC2=O [DET, deoxyelephantopin, reference compound] | < 5.12

For the 5 compounds below, give their pIC50 values.
1. C=C1C(=O)OC2CC3=C[C@@H](C/C(C)=C/C(OC(=O)/C=C/c4cccc(OC)c4)[C@H]12)OC3=O (stereo partly shown)
2. C=C1C(=O)OC2CC3=C[C@@H](C/C(C)=C/C(OC(=O)/C=C/c4cc(OC)c(OC)c(OC)c4)[C@H]12)OC3=O (stereo partly shown)
3. C=C1C(=O)OC2CC3=C[C@@H](C/C(C)=C/C(OC(=O)CC(C)C)[C@H]12)OC3=O (stereo partly shown)
4. C=C1C(=O)OC2CC3=C[C@@H](C/C(C)=C/C(OC(=O)/C=C/C)[C@H]12)OC3=O (stereo partly shown)
5. C=C1C(=O)OC2CC3=C[C@@H](C/C(C)=C/C(OC(=O)/C(C)=C/CC)[C@H]12)OC3=O (stereo partly shown)

1: 5.43; 2: < 5.12; 3: < 5.12; 4: < 5.12; 5: < 5.12

These entries and their values trace back to patent US10238631B2.
